Biological target: recombinant full-length human prolyl endopeptidase (PREP) (Homo sapiens)
Construct: To recombinant full-length human prolyl endopeptidase (PREP, R&D-Systems, 4308-SE)
Sequence (P48147 whole entry): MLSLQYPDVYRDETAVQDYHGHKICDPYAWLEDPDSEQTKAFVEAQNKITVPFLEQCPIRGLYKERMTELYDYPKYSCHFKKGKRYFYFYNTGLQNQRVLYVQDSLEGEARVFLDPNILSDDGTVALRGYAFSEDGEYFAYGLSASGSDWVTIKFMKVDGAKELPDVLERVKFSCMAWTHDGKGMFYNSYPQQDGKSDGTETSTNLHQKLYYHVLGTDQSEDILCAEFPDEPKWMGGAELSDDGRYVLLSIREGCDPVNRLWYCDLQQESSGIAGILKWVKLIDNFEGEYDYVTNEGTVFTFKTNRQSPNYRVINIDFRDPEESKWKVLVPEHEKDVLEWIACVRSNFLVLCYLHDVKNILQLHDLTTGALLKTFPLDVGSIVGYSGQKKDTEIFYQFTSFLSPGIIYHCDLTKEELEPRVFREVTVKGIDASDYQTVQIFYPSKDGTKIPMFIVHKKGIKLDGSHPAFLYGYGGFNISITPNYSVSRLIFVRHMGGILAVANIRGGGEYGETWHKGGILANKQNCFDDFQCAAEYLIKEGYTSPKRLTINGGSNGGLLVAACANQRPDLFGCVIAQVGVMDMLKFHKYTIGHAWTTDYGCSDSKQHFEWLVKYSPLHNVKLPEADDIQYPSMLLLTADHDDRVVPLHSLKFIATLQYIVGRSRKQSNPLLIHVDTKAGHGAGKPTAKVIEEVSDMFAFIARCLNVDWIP
Experiment: Biochemical human prolyl endopeptidase (PREP) assay with fluorescently labelled substrate
Conditions: substrate Z-Gly-Pro-AMC 50 μM, 32° C., 60 min; some as mean values from multiple independent determinations
Method: B-1 Biochemical Human Prolyl Endopeptidase (PREP) Assay for Identification of Inhibitors of PREP Activity Using a Fluorescently Labelled Substrate Principle of the Assay: The enzymatic conversion of the fluorescent peptide substrate was observed on the basis of the measurement of the fluorescence intensity. The enzyme activity was determined by the ascertaining of the initial slope in the increase in fluorescence. […]
MEASUREMENT TYPE: IC50 (nM)

O=C(C1CCCc2nn(Cc3ccc(OCC(F)(F)F)nc3)c(=O)n21)N1CCCC1 (racemic) ... 36

(1) O=C([C@@H]1CCCc2nn(Cc3ccc(F)c(Cl)c3)c(=O)n21)N1CC(F)C1
(2) O=C(C1CC(C(F)(F)F)Cc2nn(Cc3ccnc(C(F)(F)F)c3F)c(=O)n21)N1CCC(F)(F)C1 (single isomer, unassigned) [Example 252]
Query: Compare reported IC50 values for 1 and 2 . Which is lower? Could you answer with the label of the item you picked?
Result: 1

(I) Cc1cc(Cn2nc3n(c2=O)C(C(=O)N2CCCC2)CCC3)ccn1 (racemic)
(II) O=C([C@@H]1CCCc2nn(Cc3ccc(Br)cn3)c(=O)n21)N1C[C@@H](F)[C@@H](F)C1
(III) O=C(C1CC(C(F)(F)F)Cc2nn(Cc3ccc(C(F)(F)F)nc3)c(=O)n21)N1CCC(F)(F)C1 (single isomer, unassigned) [Example 313]
Query: List the 3 entries from lowest IC50 to highest IC50 value. Provide your answer as the labels ordered per the instruction.
Result: II, III, I
